# assayed system: Autotaxin (ENPP2, NPP2) (Homo sapiens, UniProt Q13822 Q13822:36-863)
# assay: inhibition
pIC50: −log10 of the molar value.
Decide using pIC50: a value greater than or equal to 7 is 1, a smaller one is 0.

{"columns": ["binder", "assigned label"],
 "data": [
  ["AGGGAAACAGGUUUUGCUCCU (ssRNA, 2'-F pyrimidines, 2'-OH purines) [SEQ 21]", 0],
  ["UCUGAGGGAAACAGGUUUUGCUCCUCGGA (mixed, as 16(47) with 5' 80 kDa PEG (GL2-800GS2)-ssH linker instead of 5' idT) [SEQ 16(48)]", 1],
  ["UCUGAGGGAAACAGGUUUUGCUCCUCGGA (mixed, as 16(21) with 5' 40 kDa PEG (GL2-400GS2)-ssH linker instead of 5' idT) [SEQ 16(24)]", 1],
  ["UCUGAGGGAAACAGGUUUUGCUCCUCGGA (mixed, as 16(21) with dT1 dC2 dT3 dC23 dC24 dC26) [SEQ 16(32)]", 1],
  ["CUGAGGGAAACAGGUUUUGCUCCUCGG (ssRNA, 2'-F pyrimidines, 2'-OH purines) [SEQ 18]", 1],
  ["SEQ 14 (ssRNA, 2'-F pyrimidines, 2'-OH purines) RNA: GGGCUAAACGCUCUGAGGGAAACAGGUUUUGCUCCUCGGAGCGUGGACGCCC", 1]
]}
